System: Hek293T
assay_info: Primary qHTS to identify gynecologic anti-cancer compounds using libraries of approved drugs and bioactive compounds (AID 1345084); further: nearly all actives have a fitted effect of over 55% in size
measurement_setup: Gynecologic cancer cell panel viability, ATPlite luminescence, 48 h, control line for the selectivity index; series mostly up to 57.5 µM
Results filed as inconclusive are left out. Activity calls are given as the source filed them. The call rests on the fitted dose curve; in most records, active means well fitted cell-killing curve with a large enough effect; inconclusive means small, poorly fitted or top-dose-only effect, or effect the other way; inactive means flat fitted curve, though single readings scatter.
Entry note: the call must match one of label 1 (active), label 0 (inactive)

compound: Cn1c(=O)n(-c2ccc(C(C)(C)C#N)cc2)c2c3cc(-c4cnc5ccccc5c4)ccc3ncc21
cat: label 1

INPUT: Identify the outcome logged in this assay for the compound shown: O=C(c1cncc(Br)c1)N1CCC(N2CCCC2)CC1
OUTPUT: label 0

INPUT: Identify the outcome logged in this assay for the compound shown: N#Cc1c(O)c2c(-c3ccc(-c4ccccc4O)cc3)csc2[nH]c1=O
OUTPUT: label 0

INPUT: Identify the outcome logged in this assay for the compound shown: Cc1c(C)n(Cc2ccc(-c3ccccc3C(=O)O)cc2)c2ccc(C(=O)N[C@@H](C)c3ccc([N+](=O)[O-])cc3)cc12
OUTPUT: label 0

INPUT: Identify the outcome logged in this assay for the compound shown: COc1ccc(F)c(F)c1C(=O)c1cnc(NC2CCN(S(C)(=O)=O)CC2)nc1N
OUTPUT: label 1

INPUT: Identify the outcome logged in this assay for the compound shown: CCOC(=O)C1=C(C)NC2=C(C(=O)CC(C)(C)C2)C1c1ccc(-c2ccccc2)cc1 (configuration not stated)
OUTPUT: label 1

INPUT: Identify the outcome logged in this assay for the compound shown: CS(=O)(=O)c1ccc(-c2cnc(N)c(C(=O)Nc3ccccc3)n2)cc1
OUTPUT: label 0
